system: Streptococcus pneumoniae; test: MIC, microdilution method in 96-well plates; assay type: cell-based; conditions: Mueller-Hinton Broth, 37° C., 24 hours of incubation, read-out: MIC Streptococcus pneumoniae
readout.type: MIC

compound	assay.result
CC(=O)NC[C@H]1CN(c2ccc(N3CCOCC3)c(F)c2)C(=O)O1 [Linezolid, reference compound]	0.8 µg/mL
CC(C)(C)[C@H](NC(=O)[C@H](CC1CCCC1)CN(O)C=O)C(=O)N1CCC(NC(=O)Nc2ccc(C(F)(F)F)cc2)CC1	1.6 µg/mL
CC(C)(C)[C@H](NC(=O)[C@H](CC1CCCC1)CN(O)C=O)C(=O)N1CCC(NS(=O)(=O)c2ccc(C(F)(F)F)cc2)CC1	1.6 µg/mL
CC(C)(C)[C@H](NC(=O)[C@@H](CC(=O)NO)CC1CCCC1)C(=O)N1CCC(NC(=O)c2ccc(C(F)(F)F)cc2)CC1	3.1 µg/mL

###

test system: Streptococcus pneumoniae; assay: MIC, microdilution method in 96-well plates; type: cell-based; conditions: Mueller-Hinton Broth, 37° C., 24 hours of incubation, read-out: MIC Streptococcus pneumoniae
readout.type: MIC (µg/mL)

structure.as.smiles	target	assay.result
CC(C)(C)[C@H](NC(=O)[C@@H](CC(=O)NO)CC1CCCC1)C(=O)N1CCC(NC(=O)c2ccccc2)CC1	Streptococcus pneumoniae	6.3
CC(C)(C)[C@H](NC(=O)[C@H](CC1CCCC1)CN(O)C=O)C(=O)N1CCC(NC(=O)c2ccc(F)cc2)CC1	Streptococcus pneumoniae	1.6
Cc1ccc(C(=O)NC2CCN(C(=O)[C@@H](NC(=O)[C@@H](CC(=O)NO)CC3CCCC3)C(C)(C)C)CC2)cc1	Streptococcus pneumoniae	0.8
CC(C)(C)[C@H](NC(=O)[C@H](CC1CCCC1)CN(O)C=O)C(=O)N1CCC(NC(=O)c2cc(F)c(F)cc2F)CC1	Streptococcus pneumoniae	1.6

###

test system: Streptococcus agalactiae; assay: MIC, microdilution method in 96-well plates; format: cell-based; details: Mueller-Hinton Broth, 37° C., 24 hours of incubation, read-out: MIC Streptococcus agalactiae

compound	MIC
CC(C)(C)[C@H](NC(=O)[C@H](CC1CCCC1)CN(O)C=O)C(=O)N1CCC(NC(=O)Nc2ccc(C(F)(F)F)cc2)CC1 [Example 48]	0.2 µg/mL
CC(C)(C)[C@H](NC(=O)[C@H](CC1CCCC1)CN(O)C=O)C(=O)N1CCC(NC(=O)c2ccccc2)CC1 [Example 25]	0.1 µg/mL
Cc1ccc(C(=O)NC2CCN(C(=O)[C@@H](NC(=O)[C@H](CC3CCCC3)CN(O)C=O)C(C)(C)C)CC2)cc1 [Example 38]	0.1 µg/mL

###

tested on: Streptococcus pneumoniae; experiment: MIC, microdilution method in 96-well plates; format: cell-based; details: Mueller-Hinton Broth, 37° C., 24 hours of incubation, read-out: MIC Streptococcus pneumoniae
readout.type: MIC (µg/mL)

molecule	readout.type	assay.result
CC(C)(C)[C@H](NC(=O)[C@H](CC1CCCC1)CN(O)C=O)C(=O)N1CCC(NC(=O)c2ccc(C#N)cc2)CC1 [Example 29]	MIC	1.6
CC(C)(C)[C@H](NC(=O)[C@@H](CC(=O)NO)CC1CCCC1)C(=O)N1CCC(NC(=O)Cc2ccccc2)CC1 [Example 10]	MIC	50
CC(C)(C)[C@H](NC(=O)[C@@H](CC(=O)NO)CC1CCCC1)C(=O)N1CCC(NC(=O)c2ccc(F)cc2)CC1 [Example 15]	MIC	6.3
CC(C)(C)[C@H](NC(=O)[C@H](CC1CCCC1)CN(O)C=O)C(=O)N1CCC(NC(=O)c2ccccc2)CC1 [Example 25]	MIC	6.3

###

The entries below come with measured MIC values attached.
Test system: Streptococcus pneumoniae
Test: MIC, microdilution method in 96-well plates
Type: cell-based
Settings: Mueller-Hinton Broth, 37° C., 24 hours of incubation, read-out: MIC Streptococcus pneumoniae
Description: Minimum inhibitory concentrations (MICs) were determined using the microdilution method in 96-well format plates. Each of the compounds of Examples was dissolved in dimethyl sulfoxide to a concentration of 2 mg/mL and stored at 4° C. until used. They were diluted in Mueller-Hinton Broth (MHB) and used for MIC determination. […] Plates were incubated at 37° C. and MIC were recorded after 24 hours of incubation for bacteria. […]
readout.type: MIC

compound	readout.type	assay.result
COc1ccc(C(=O)NC2CCN(C(=O)[C@@H](NC(=O)[C@H](CC3CCCC3)CN(O)C=O)C(C)(C)C)CC2)cc1 [Example 39]	MIC	3.1 µg/mL
Cc1ccc(C(=O)NC2CCN(C(=O)[C@@H](NC(=O)[C@H](CC3CCCC3)CN(O)C=O)C(C)(C)C)CC2)cc1 [Example 38]	MIC	1.6 µg/mL
CC(C)[C@H](NC(=O)[C@H](CC1CCCC1)CN(O)C=O)C(=O)N1CCC(NC(=O)c2ccc(C#N)cc2)CC1 [Example 41]	MIC	1.6 µg/mL
CC(C)(C)[C@H](NC(=O)[C@H](CC1CCCC1)CN(O)C=O)C(=O)N1CCC(NC(=O)c2ccc(C(F)(F)F)cc2)CC1 [Example 28]	MIC	1.6 µg/mL

###

Reported MIC values follow for various compounds
tested on: Streptococcus agalactiae; assay: MIC, microdilution method in 96-well plates; type: cell-based; conditions: Mueller-Hinton Broth, 37° C., 24 hours of incubation, read-out: MIC Streptococcus agalactiae
readout.type: MIC

structure.as.smiles	readout.type	assay.result
CC(C)(C)[C@H](NC(=O)[C@H](CC1CCCC1)CN(O)C=O)C(=O)N1CCC(NC(=O)c2ccc(F)cc2)CC1	MIC	0.2 µg/mL
CC(C)(C)[C@H](NC(=O)[C@@H](CC(=O)NO)CC1CCCC1)C(=O)N1CCC(NC(=O)c2ccc(C(F)(F)F)cc2)CC1	MIC	0.2 µg/mL
CC(C)(C)[C@H](NC(=O)[C@@H](CC(=O)NO)CC1CCCC1)C(=O)N1CCC(NC(=O)Cc2ccccc2)CC1	MIC	0.2 µg/mL
Cc1ccc(C(=O)NC2CCN(C(=O)[C@@H](NC(=O)[C@@H](CC(=O)NO)CC3CCCC3)C(C)(C)C)CC2)cc1	MIC	0.4 µg/mL
CC(C)(C)[C@H](NC(=O)[C@H](CC1CCCC1)CN(O)C=O)C(=O)N1CCC(NC(=O)c2ccc(C(F)(F)F)cc2)CC1	MIC	0.1 µg/mL
CC(C)(C)[C@H](NC(=O)[C@H](CC1CCCC1)CN(O)C=O)C(=O)N1CCC(NC(=O)c2ccc(C#N)cc2)CC1	MIC	0.1 µg/mL

###

tested on: Vancomycin-resistant Enterococcus faecalis; assay: MIC, microdilution method in 96-well plates; type: cell-based; settings: Mueller-Hinton Broth, 37° C., 24 hours of incubation, read-out: MIC Vancomycin-resistant Enterococcus faecalis

compound	MIC, µg/mL
CC(C)(C)[C@H](NC(=O)[C@@H](CC(=O)NO)CC1CCCC1)C(=O)N1CCC(NC(=O)c2ccc(C(F)(F)F)cc2)CC1	6.3
CC(C)(C)[C@H](NC(=O)[C@@H](CC(=O)NO)CC1CCCC1)C(=O)N1CCC(NC(=O)c2ccccc2)CC1	25
CC(C)(C)[C@H](NC(=O)[C@H](CC1CCCC1)CN(O)C=O)C(=O)N1CCC(NC(=O)c2ccccc2)CC1	6.3
CC(=O)NC[C@H]1CN(c2ccc(N3CCOCC3)c(F)c2)C(=O)O1 [Linezolid, reference compound]	0.8
CC(C)(C)[C@H](NC(=O)[C@H](CC1CCCC1)CN(O)C=O)C(=O)N1CCC(NC(=O)Nc2ccc(C(F)(F)F)cc2)CC1	3.1
Cc1ccc(C(=O)NC2CCN(C(=O)[C@@H](NC(=O)[C@H](CC3CCCC3)CN(O)C=O)C(C)(C)C)CC2)cc1	3.1
CC(C)(C)[C@H](NC(=O)[C@H](CC1CCCC1)CN(O)C=O)C(=O)N1CCC(NC(=O)c2cc(F)c(F)cc2F)CC1	3.1
Cc1ccc(C(=O)NC2CCN(C(=O)[C@@H](NC(=O)[C@@H](CC(=O)NO)CC3CCCC3)C(C)(C)C)CC2)cc1	12.5
CC(C)(C)[C@H](NC(=O)[C@H](CC1CCCC1)CN(O)C=O)C(=O)N1CCC(NS(=O)(=O)c2ccc(C(F)(F)F)cc2)CC1	3.1
CC(C)(C)[C@H](NC(=O)[C@H](CC1CCCC1)CN(O)C=O)C(=O)N1CCC(NC(=O)c2ccc(C#N)cc2)CC1	3.1
CC(C)(C)[C@H](NC(=O)[C@H](CC1CCCC1)CN(O)C=O)C(=O)N1CCC(NC(=O)c2ccc(C(F)(F)F)cc2)CC1	6.3
COc1ccc(C(=O)NC2CCN(C(=O)[C@@H](NC(=O)[C@H](CC3CCCC3)CN(O)C=O)C(C)(C)C)CC2)cc1	6.3
CC(C)(C)[C@H](NC(=O)[C@@H](CC(=O)NO)CC1CCCC1)C(=O)N1CCC(NC(=O)Cc2ccccc2)CC1	50
CC(C)(C)[C@H](NC(=O)[C@H](CC1CCCC1)CN(O)C=O)C(=O)N1CCC(NC(=O)c2ccc(F)cc2)CC1	6.3
CC(C)[C@H](NC(=O)[C@H](CC1CCCC1)CN(O)C=O)C(=O)N1CCC(NC(=O)c2ccc(C#N)cc2)CC1	3.1
CC(C)(C)[C@H](NC(=O)[C@@H](CC(=O)NO)CC1CCCC1)C(=O)N1CCC(NC(=O)c2ccc(F)cc2)CC1	6.3

Where do the numbers come from? From patent US20080234333A1.
